biological target: T1, 4-1BB Fc (human, UniProt Q07011 24-183); assay: ELISA, 4-1BB Fc coated, VHH at 0.005 nM
T1 construct: also called rh-41BB; 41BB-hFc
T1 sequence (Q07011 24-183): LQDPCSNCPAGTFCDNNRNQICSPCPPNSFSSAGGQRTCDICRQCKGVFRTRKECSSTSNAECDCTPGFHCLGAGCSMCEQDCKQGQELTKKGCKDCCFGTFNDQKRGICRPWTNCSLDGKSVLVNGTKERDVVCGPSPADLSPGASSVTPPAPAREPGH
Assignment: determine reported OD450 for the given binders.
Simply state the number, no unit and no words.

### Prompt Recorded OD450 for 4-1BB-9 (VHH, not shown: small tags and cut ends) VHH: QVQLVESGGGLVQAGGSLRLSCAASGSIFSYNAVAWYRQAPGKQRELVAVITSGGETTKYADSVKGRFTISRDITKNAVDLQMVSLKPEDTAVYTCAALRNSGSTSWGQGTQVTVSS , please?
### Response 0.064

### Prompt Recorded OD450 for 4-1BB-3 (VHH, not shown: small tags and cut ends) VHH: EVQLVESGGGLVQAGGSLRLSCAASGNIFSYNGMAWYRQAPGNQRELVAVVAIDGTAKYADTVKGRFTISRDNIKNTVNLEMNSLKPEDTAVYTCAALRNSGSTSWGQGTQVTVSS , please?
### Response 0.067

### Prompt Recorded OD450 for 4-1BB-2 (VHH, not shown: small tags and cut ends) VHH: QVQLVESGGGLVQAGGSLRLSCAASGSIFSYNAMAWYRQAPGKQRELVALITSDRTTKYADSVKGRFTISRDDTKNTVDLEMNSLKPEDTAVYTCAALLNSARTSWGQGTQVTVSS , please?
### Response 0.063

### Prompt Recorded OD450 for 4-1BB-39 (VHH, not shown: small tags and cut ends) VHH: QVQLGSLGGGSAQPGGSLRLSCTGSGNVYDFVVMGWYRQFPGRQRELVANITGRASPNYVDSVKGRFTISRDNAQNTVHLQMNNLKVEDSAIYYCYAAQQLTTIAGVMTLDYWGSGTQVTVSS , please?
### Response 0.064
